Target: Indoleamine 2,3-dioxygenase 1 (Homo sapiens, UniProt P14902)
Sequence (P14902 whole entry, looked up): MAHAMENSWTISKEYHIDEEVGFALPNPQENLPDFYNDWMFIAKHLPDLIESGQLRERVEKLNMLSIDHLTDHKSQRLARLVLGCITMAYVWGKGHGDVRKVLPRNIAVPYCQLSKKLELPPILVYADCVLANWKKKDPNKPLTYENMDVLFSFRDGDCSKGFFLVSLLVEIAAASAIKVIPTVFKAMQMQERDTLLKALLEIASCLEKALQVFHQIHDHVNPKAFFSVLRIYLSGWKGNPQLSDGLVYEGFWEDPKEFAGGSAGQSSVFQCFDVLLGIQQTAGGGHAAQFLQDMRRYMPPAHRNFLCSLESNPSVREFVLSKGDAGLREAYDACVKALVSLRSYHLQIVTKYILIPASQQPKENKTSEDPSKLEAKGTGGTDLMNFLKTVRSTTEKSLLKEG
Assay: Inhibition of IFN-gamma-stimulated IDO1 in human HeLa cells at 1 uM after 24 hrs by Ehrlich's reagent based assay relative to control
Type: cell-based
Classify by measured inhibition: met if it is equal to or exceeds 40%, not met if it is smaller.

Before answering, review these 2 worked examples.
# CHEMICAL_STRUCTURE, TARGET_OR_TEST_SYSTEM, ANSWER_LABEL
data = [
    ("CN(C)CCNC(=O)c1c2c(n3ccccc13)C(=O)c1ncccc1C2=O", "Indoleamine 2,3-dioxygenase 1 (Homo sapiens, UniProt P14902)", "met"),
    ("O=C1c2cccnc2C(=O)c2c1c(C(=O)O)c1cc(I)ccn21", "Indoleamine 2,3-dioxygenase 1 (Homo sapiens, UniProt P14902)", "not met"),
]

Problem: In plain terms: is recorded inhibition at least 40% for CN(C)CCNC(=O)c1c2c(n3ccccc13)C(=O)c1cccnc1C2=O ?
Solution: met

Problem: In plain terms: is recorded inhibition at least 40% for O=C1c2ncccc2C(=O)c2c1c(C(=O)Nc1ccccc1)c1ccccn21 ?
Solution: not met

Problem: In plain terms: is recorded inhibition at least 40% for COC(=O)c1c2c(n3ccccc13)C(=O)c1ccccc1C2=O ?
Solution: not met

Problem: In plain terms: is recorded inhibition at least 40% for O=C(O)c1cccc(NC(=O)c2c3c(n4ccccc24)C(=O)c2ncccc2C3=O)c1 ?
Solution: not met

Problem: In plain terms: is recorded inhibition at least 40% for Cc1ccccc1NC(=O)c1c2c(n3ccccc13)C(=O)c1cccnc1C2=O ?
Solution: not met

Problem: In plain terms: is recorded inhibition at least 40% for CSc1ccn2c3c(c(C(=O)NCCN(C)C)c2c1)C(=O)c1cccnc1C3=O ?
Solution: met

Problem: In plain terms: is recorded inhibition at least 40% for COC(=O)c1c2c(n3ccccc13)C(=O)c1cccc(O)c1C2=O ?
Solution: not met

Problem: In plain terms: is recorded inhibition at least 40% for NS(=O)(=O)NCCNC1=NON/C1=C(/NO)Nc1ccc(F)c(Br)c1 ?
Solution: met

Problem: In plain terms: is recorded inhibition at least 40% for NC(=S)NNC(=O)c1c2c(n3ccccc13)C(=O)c1ncccc1C2=O ?
Solution: not met

Problem: In plain terms: is recorded inhibition at least 40% for CSc1ccn2c3c(c(C(=O)NCCN(C)C)c2c1)C(=O)c1ncccc1C3=O ?
Solution: met

---

Molecular target: Tryptophan 2,3-dioxygenase (Homo sapiens, UniProt P48775)
Sequence (P48775 whole entry): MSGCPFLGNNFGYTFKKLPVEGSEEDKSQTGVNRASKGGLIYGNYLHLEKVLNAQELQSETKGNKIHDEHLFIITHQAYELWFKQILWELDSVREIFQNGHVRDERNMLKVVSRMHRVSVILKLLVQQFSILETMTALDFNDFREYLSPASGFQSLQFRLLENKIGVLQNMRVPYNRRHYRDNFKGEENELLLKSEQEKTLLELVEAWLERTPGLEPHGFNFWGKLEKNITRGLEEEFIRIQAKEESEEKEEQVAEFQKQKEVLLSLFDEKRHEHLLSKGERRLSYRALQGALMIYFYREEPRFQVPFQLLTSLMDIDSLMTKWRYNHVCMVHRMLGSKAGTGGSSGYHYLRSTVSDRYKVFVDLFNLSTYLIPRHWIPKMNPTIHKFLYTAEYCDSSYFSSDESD
Assay: Inhibition of recombinant TDO (unknown origin) assessed as reduction in N-formylkynurenine formation using L-Tryptophan as substrate after 75 mins by UV absorption method
Please go through the items and note down their log10 of IC50.
Please be aware that the numbers have been log10-transformed from IC50 in µM.

# CHEMICAL_STRUCTURE, log10 of IC50
records = [
    ("CN(C)CCNC(=O)c1c2c(n3ccccc13)C(=O)c1ncccc1C2=O", 0.53),
    ("CN(C)CCNC(=O)c1c2c(n3ccccc13)C(=O)c1cccnc1C2=O", 0.85),
    ("O=C1c2cccnc2C(=O)c2c1c(C(=O)Nc1ccccc1)c1ccccn21", 0.86),
]

Okay, here is my list. What is log10 of IC50 for each of these?
1. NC(=S)NNC(=O)c1c2c(n3ccccc13)C(=O)c1ncccc1C2=O
2. O=C(O)c1cccc(NC(=O)c2c3c(n4ccccc24)C(=O)c2ncccc2C3=O)c1

Solution:
[0.08, 1.62]
